Measured pEC50 values are reported for all entries that follow.
System: tissue strips obtained from Landrace pig bladders
Assay: Functional potassium channel opening activity in isolated bladder strips (field-stimulated twitch)
Conditions: Sus scrofa, amount of agent necessary to cause 50% of the agent's maximal response; read-out: ED50 (the source's name)
pEC50: −log10 of the molar value.
MEASUREMENT_LABEL: pEC50

COMPOUND: CC(C)(C)C(NC(=O)c1ccc(Cl)cc1)NC(=N[N+](=O)[O-])Nc1cccnc1 (centres unmarked) [Example 123]
MEASUREMENT_LABEL: pEC50
EXPERIMENTAL_VALUE: 5.00
//
COMPOUND: Cc1ccc(C(=O)N[C@H](NC(=S)Nc2cccnc2)C(C)(C)C)cc1 [Example 23]
MEASUREMENT_LABEL: pEC50
EXPERIMENTAL_VALUE: 4.80
//
COMPOUND: C=CC(C)(C)CC(NC(=O)c1ccc(Cl)cc1)NC(=NC#N)Nc1cccnc1 (centres unmarked) [Example 92]
MEASUREMENT_LABEL: pEC50
EXPERIMENTAL_VALUE: 5.74
//
COMPOUND: Cc1ccc(C(=O)NC(NC(=NC#N)Nc2cccnc2)C(Cl)(Cl)Cl)cc1 (centres unmarked) [Example 44]
MEASUREMENT_LABEL: pEC50
EXPERIMENTAL_VALUE: 5.70
//
COMPOUND: Cc1ccc(C(=O)NC(NC(=S)Nc2ccc(F)cc2)C(F)(F)F)cc1 (centres unmarked) [Example 3]
MEASUREMENT_LABEL: pEC50
EXPERIMENTAL_VALUE: 5.05
//
COMPOUND: Cc1ccc(C(=O)NC(NC(=NC#N)Nc2ccccc2)C(Cl)(Cl)Cl)cc1 (centres unmarked) [Example 46]
MEASUREMENT_LABEL: pEC50
EXPERIMENTAL_VALUE: 5.30
//
COMPOUND: CC(C)(C)CC(NC(=O)c1ccc(C(F)(F)F)cc1)NC(=NS(=O)(=O)C(F)(F)F)Nc1cccnc1 (centres unmarked) [Example 189]
MEASUREMENT_LABEL: pEC50
EXPERIMENTAL_VALUE: 6.03
//
COMPOUND: CC(Cl)(Cl)C(NC(=O)c1cccs1)NC(=NC#N)Nc1ccc(Cl)nc1 (centres unmarked) [Example 192]
MEASUREMENT_LABEL: pEC50
EXPERIMENTAL_VALUE: 5.51
//
COMPOUND: O=C(Nc1cccnc1)NC(NC(=O)c1ccccc1)C(Cl)(Cl)Cl (centres unmarked) [Example 40]
MEASUREMENT_LABEL: pEC50
EXPERIMENTAL_VALUE: 4.82
//
COMPOUND: Cc1ccc(C(=O)NC(NC(=NC#N)Nc2cccnc2)C(C)(C)C)cc1 (centres unmarked) [Example 51]
MEASUREMENT_LABEL: pEC50
EXPERIMENTAL_VALUE: 4.77
//
COMPOUND: Cc1ccc(C(=O)NC(NC(=S)Nc2cccc([N+](=O)[O-])c2)C(F)(F)F)cc1 (centres unmarked) [Example 4]
MEASUREMENT_LABEL: pEC50
EXPERIMENTAL_VALUE: 4.74
//
COMPOUND: C=CC(C)(C)CC(NC(=O)c1ccc(Cl)cc1)NC(=N[N+](=O)[O-])Nc1cccnc1 (centres unmarked) [Example 133]
MEASUREMENT_LABEL: pEC50
EXPERIMENTAL_VALUE: 5.08
//
COMPOUND: Cc1ccc(C(=O)NC(NC(=S)Nc2cc(F)ccc2F)C(F)(F)F)cc1 (centres unmarked) [Example 14]
MEASUREMENT_LABEL: pEC50
EXPERIMENTAL_VALUE: 4.85
//
COMPOUND: CC(C)(C)C(NC(=O)c1cc(F)cc(F)c1)NC(=NC#N)Nc1cccnc1 (centres unmarked) [Example 110]
MEASUREMENT_LABEL: pEC50
EXPERIMENTAL_VALUE: 5.21
//
COMPOUND: O=C(NC(NC(=S)Nc1ccccc1F)C(F)(F)F)c1ccc(Cl)cc1 (centres unmarked) [Example 21]
MEASUREMENT_LABEL: pEC50
EXPERIMENTAL_VALUE: 4.68
//
COMPOUND: CC(Cl)(Cl)C(NC(=O)c1cccc(Cl)c1)NC(=NC#N)Nc1ccc(C(F)(F)F)nc1 (centres unmarked) [Example 159]
MEASUREMENT_LABEL: pEC50
EXPERIMENTAL_VALUE: 5.10
//
COMPOUND: Cc1ccc(C(=O)NC(NC(=S)Nc2c(F)cccc2F)C(F)(F)F)cc1 (centres unmarked) [Example 17]
MEASUREMENT_LABEL: pEC50
EXPERIMENTAL_VALUE: 4.92

----------
Overview of reported melting point across a group of compounds:
MEASUREMENT_LABEL: melting point

COMPOUND: CCC(CC)C(NC(=O)c1ccc(Cl)cc1)NC(=C[N+](=O)[O-])Nc1cccnc1 (centres unmarked)
MEASUREMENT_LABEL: melting point
EXPERIMENTAL_VALUE: 192 to 193 °C
//
COMPOUND: Cc1ccc(C(=O)NC(NC(=S)Nc2ccccc2C)C(F)(F)F)cc1 (centres unmarked)
MEASUREMENT_LABEL: melting point
EXPERIMENTAL_VALUE: 210 to 211 °C
//
COMPOUND: CC(C)(C)C(NC(=O)c1ccc(Br)cc1)NC(=NC#N)Nc1cccnc1 (centres unmarked)
MEASUREMENT_LABEL: melting point
EXPERIMENTAL_VALUE: 180 to 181 °C
//
COMPOUND: CN(C(=NC#N)Nc1cccnc1)C(NC(=O)c1ccc(Cl)cc1)C(C)(C)C (centres unmarked)
MEASUREMENT_LABEL: melting point
EXPERIMENTAL_VALUE: 127 to 129 °C
//
COMPOUND: Cc1ccc(C(=O)NC(NC(=S)Nc2cccc(C(F)(F)F)c2F)C(F)(F)F)cc1 (centres unmarked)
MEASUREMENT_LABEL: melting point
EXPERIMENTAL_VALUE: 179 to 181 °C
//
COMPOUND: C=CCC(C)(C)C(NC(=O)c1ccc(Cl)cc1)NC(=N[N+](=O)[O-])Nc1cccnc1 (centres unmarked)
MEASUREMENT_LABEL: melting point
EXPERIMENTAL_VALUE: 200 to 203 °C
//
COMPOUND: CC(C)(C)C(NC(=O)Nc1ccccc1F)NC(=O)c1ccc(Cl)cc1 (centres unmarked)
MEASUREMENT_LABEL: melting point
EXPERIMENTAL_VALUE: 229 to 230 °C
//
COMPOUND: Cc1ccc(C(=O)NC(NC(=S)Nc2ccc(Cl)nc2)C(F)(F)F)cc1 (centres unmarked)
MEASUREMENT_LABEL: melting point
EXPERIMENTAL_VALUE: 199 to 200 °C

----------
Readings of Emax for the listed compounds
System: primary cultured guinea-pig urinary bladder (GPB) cells
Test: Membrane hyperpolarization (MHP) assay, DiBAC(4)3 / FLIPR
Format: cell-based
Conditions: Cavia porcellus, maximal steady-state hyperpolarization, normalized to response with 10 μM P1075 (100%)

COMPOUND: Cc1ccc(C(=O)N[C@@H](NC(=S)Nc2cccnc2)C(C)(C)C)cc1
UNIT_DESCRIPTOR: %
Emax: 93

COMPOUND: Cc1ccc(C(=O)NC(NC(=S)Nc2cccc(C(F)(F)F)c2F)C(F)(F)F)cc1 (stereo not drawn)
UNIT_DESCRIPTOR: %
Emax: 106

COMPOUND: CCC(CC)C(NC(=O)c1ccc(Cl)cc1)NC(=NC#N)Nc1cccnc1 (stereo not drawn)
UNIT_DESCRIPTOR: %
Emax: 73

COMPOUND: O=C(NC(NC(=S)Nc1cccnc1)C(Cl)(Cl)Cl)c1ccc(I)cc1 (stereo not drawn)
UNIT_DESCRIPTOR: %
Emax: 61

COMPOUND: CC(C)(C)C(NC(=O)c1ccc(Cl)cc1F)NC(=NC#N)Nc1cccnc1 (stereo not drawn)
UNIT_DESCRIPTOR: %
Emax: 85

COMPOUND: C=CC(C)(C)CC(NC(=O)c1ccc(Cl)cc1)NC(=N[N+](=O)[O-])Nc1cccnc1 (stereo not drawn)
UNIT_DESCRIPTOR: %
Emax: 106

COMPOUND: COc1ccccc1NC(=S)NC(NC(=O)c1ccc(C)cc1)C(F)(F)F (stereo not drawn)
UNIT_DESCRIPTOR: %
Emax: 10

COMPOUND: Cc1ccc(C(=O)NC(NC(=O)Nc2ccccc2)C(Cl)(Cl)Cl)cc1 (stereo not drawn)
UNIT_DESCRIPTOR: %
Emax: 66

COMPOUND: Cc1ccc(C(=O)NC(NC(=S)Nc2c(F)cccc2F)C(F)(F)F)cc1 (stereo not drawn)
UNIT_DESCRIPTOR: %
Emax: 109

----------
# melting point per record follows

COMPOUND: CC(C)(C)CC(NC(=O)c1ccc(Cl)cc1)NC(=NS(=O)(=O)c1ccccc1)Nc1cccnc1 (centres unmarked)
melting point: 199 to 200 °C
--
COMPOUND: COc1ncccc1NC(=NC#N)NC(NC(=O)c1cc(F)cc(F)c1)C(C)(Cl)Cl (centres unmarked)
melting point: 125 to 126 °C
--
COMPOUND: Cc1ccccc1C(=O)NC(NC(=S)Nc1cccnc1)C(C)(C)C (centres unmarked)
melting point: 186 to 187 °C
--
COMPOUND: CC(C)(C)C(NC(=O)c1ccc(Cl)cc1)NC(=NS(=O)(=O)c1ccccc1)Nc1cccnc1 (centres unmarked)
melting point: 196 to 197 °C
--
COMPOUND: Cc1ccc(C(=O)NC(C)NC(=S)Nc2cccc([N+](=O)[O-])c2)cc1 (centres unmarked)
melting point: 172 to 175 °C
--
COMPOUND: COc1cc(OC)cc(C(=O)NC(NC(=NC#N)Nc2ccc(C(F)(F)F)nc2)C(C)(Cl)Cl)c1 (centres unmarked)
melting point: 187 to 189 °C
--
COMPOUND: CCC(CC)(CCC#N)C(NC(=O)c1ccc(Cl)cc1)NC(=N[N+](=O)[O-])Nc1cccnc1 (centres unmarked)
melting point: 100 to 110 °C
--
COMPOUND: CCC1(C(NC(=O)c2ccc(Cl)cc2)NC(=NC#N)Nc2cccnc2)COCOC1 (centres unmarked)
melting point: 194 to 195 °C
--
COMPOUND: CC(C)(C)C(NC(=O)c1ccc(Cl)cc1)NC(=NC#N)Nc1ccccc1F (centres unmarked)
melting point: 208 to 209 °C
--
COMPOUND: CC(C)(C)C(NC(=O)c1ccc(Cl)cc1)NC(Nc1cccnc1)=C(C#N)C#N (centres unmarked)
melting point: 213 to 214 °C
--
COMPOUND: N#CN=C(Nc1cccnc1)NC(CC12CC3CC(CC(C3)C1)C2)NC(=O)c1ccc(Cl)cc1 (centres unmarked)
melting point: 202 to 203 °C
--
COMPOUND: CC(C)(Cc1ccccc1)C(NC(=O)c1ccc(Cl)cc1)NC(=NC#N)Nc1cccnc1 (centres unmarked)
melting point: 182 to 183 °C
--
COMPOUND: Cc1ccc(C(=O)NC(NC(=S)Nc2cccnc2)C(C)C)cc1 (centres unmarked)
melting point: 184 to 186 °C
--
COMPOUND: N#CN=C(Nc1cccnc1)NC(NC(=O)c1ccc(I)cc1)C(Cl)(Cl)Cl (centres unmarked)
melting point: 208 to 210 °C
--
COMPOUND: Cc1ccc(C(=O)NC(NC(=NC#N)Nc2cncnc2)C(Cl)(Cl)Cl)cc1 (centres unmarked)
melting point: 186 to 188 °C
--
COMPOUND: CSCCC(NC(=O)c1ccc(Cl)cc1)NC(=NC#N)Nc1cccnc1 (centres unmarked)
melting point: 104 to 105 °C
--
COMPOUND: Cc1ccc(C(=O)NC(Cc2ccccc2)NC(=S)Nc2cccc([N+](=O)[O-])c2)cc1 (centres unmarked)
melting point: 170 to 171 °C
